Numbers sourced from ChEMBL document CHEMBL1201862.

System: RXF 393
Experiment: NCI tumour cell line growth inhibition, 48 h
Activity calls are given as the source filed them. Rule as the data show it: active = GI50 up to about 1.1 µM and inactive = higher.
Your response should consist of one outcome taken from true = active, false = inactive

For orientation, consider the following solved cases.
CCc1nnc(S)n1/N=C\c1ccc(-c2ccccc2[N+](=O)[O-])o1: false
Nc1cc(F)ccc1CC(=O)O: false
CC(=N\N=C\c1ccccn1)/C(C)=N/N=C(C)/C(C)=N/N=C/c1ccccn1: false

Fill in: this test's call for CCOC(=O)C1(Br)C(c2ccccc2)NC(=O)N(C2OC(COC(=O)c3ccccc3)C(OC(=O)c3ccccc3)C2OC(=O)c2ccccc2)C1(C)Br (stereo not drawn) is ___ false

Fill in: this test's call for COc1ccc(NC(=S)N/N=C(\c2ccccc2)c2ccccn2)cc1 is ___ true

Fill in: this test's call for CCC(=O)NCC1CCCN2CCCCC12 (stereo not drawn) is ___ false

Fill in: this test's call for Cn1c(=O)c2nc(CCCCc3nc4ccccc4[nH]3)[nH]c2n(C)c1=O is ___ false

Fill in: this test's call for COC(=O)C1=C(OC(=O)/C(=C/c2ccc(Cl)cc2Cl)c2ccc(Cl)cc2Cl)C(C(=O)OC)[C@@]2(O)[C@@H](C(=O)OC)[C@H](C)C[C@@H]1[C@@H]2C(=O)OC (stereo partly drawn) is ___ false

* * *

System: DU-145
Assay: NCI tumour cell line growth inhibition, 48 h
Active and inactive are the calls of the source. No stated cut-off is given here; in the data, active = GI50 up to about 1.1 µM and inactive = higher.
parameter: GI50

Examples from the recorded data:
CCOC(=O)/C=C1\Nc2ccccc2C12CCc1c([nH]c3ccccc13)C2C(=O)OCC (stereo not given): 98.2 µM (inactive)
O=S1(=O)c2ccccc2C(Nc2ccccc2)N1c1ccccc1 (stereo not given): > 100 µM (inactive)
Cc1cc([N+](=O)[O-])ccc1/N=N/C(=O)NNc1ccc([N+](=O)[O-])cc1C: 16.5 µM (inactive)
C=CC[C@H](C)CCC(=O)N1[C@H]2CC3CC[C@@]2(CS1(=O)=O)C3(C)C: > 100 µM (inactive)
Cc1[nH]c(-c2ccccc2)c(O)c1C(=O)OC1CC(C)CCC1C(C)C (stereo not given): 15.8 µM (inactive)
C/C(=C\c1ccccc1)n1c(=O)cc(C)n1C: > 100 µM (inactive)

Switching to the query record.
For CC(C)c1ccc(/C=C2\CSCC3=C2N=C(S)NC3c2ccc(C(C)C)cc2)cc1 (stereo not given) the molecule record lists GI50 as > 100 µM (inactive)

* * *

Item-by-item account of GI50
Test system: UO-31
Assay: NCI tumour cell line growth inhibition, 48 h
Activity calls are given as the source filed them. Rule as the data show it: active = GI50 up to about 1.1 µM and inactive = higher.

Examples from the recorded data:
COc1cc([C@@H]2c3cc4c(cc3[C@@H](NCc3ccc(C#N)cc3)C3COC(=O)[C@@H]32)OCO4)cc(OC)c1O (stereo partly specified): 1.61 µM (inactive)
C[C@]12CCC[C@H](Cl)C1(O)C[C@H](C(=O)O)CC2 (stereo partly specified): > 100 µM (inactive)
CCc1cc(Cc2cc(CC)c(NC(=O)C(=O)Cc3ccccn3)c(CC)c2Cl)c(Cl)c(CC)c1NC(=O)C(=O)Cc1ccccn1: > 100 µM (inactive)

Switching to the query record.
For CCCCOCCOC1=C(Cl)C(=O)c2c(O)ccc(O)c2C1=O the molecule record lists GI50 as 0.748 µM (active)

* * *

Tested on: NCI/ADR-RES
Assay: NCI tumour cell line growth inhibition, 48 h
The source made the active and inactive calls. Cut-off read from the data, not from the text of the source: active = GI50 up to about 1.1 µM and inactive = higher.
parameter: GI50

For COc1cc(/C=C/c2ccc(OC)c(OC)c2)cc(OC)c1 [(E)-3,4,3',5'-TETRAMETHOXYSTILBENE] the compound record lists GI50 as 20.9 µM (inactive)

For CC(C)(CCc1nc2ccccc2[nH]1)C(=O)O the compound record lists GI50 as > 100 µM (inactive)

For COc1ccc(CNc2nc3ccccc3nc2C(=O)O)cc1 the compound record lists GI50 as 38.9 µM (inactive)

For C=C(c1ccccc1)c1ccccc1-c1cc(-c2ccccc2)cc(-c2ccccc2)n1 the compound record lists GI50 as > 100 µM (inactive)

For CC(=O)Oc1ccc2c3c1O[C@H]1[C@H](O)CC[C@@]4(O)[C@@H](C2)N(C)CC[C@]314 the compound record lists GI50 as > 100 µM (inactive)

* * *

Test system: MDA-MB-435
Assay: NCI tumour cell line growth inhibition, 48 h
Calls of active or inactive are those of the source. Rule as the data show it: active = GI50 up to about 1.1 µM and inactive = higher.
Your response should consist of one outcome taken from active, inactive

For orientation, consider the following solved cases.
COC(=O)C1=C(OC(=O)/C(=C/c2ccc(Cl)cc2Cl)c2ccc(Cl)cc2Cl)C(C(=O)OC)[C@@]2(O)[C@@H](C(=O)OC)[C@H](C)C[C@@H]1[C@@H]2C(=O)OC (stereo partly drawn): inactive
OC1CC2CCCN(CCc3c1[nH]c1ccccc31)C2 (stereo not drawn): inactive

We next turn to a different molecule, shown below.
Fill in: this test's call for COc1cc(C(c2ccc3c(c2)OCO3)C2SCCCS2)cc(OC)c1OC (stereo not drawn) is ___ active

* * *

Tested on: MCF7
Test: NCI tumour cell line growth inhibition, 48 h
The source made the active and inactive calls. Rule as the data show it: active = GI50 up to about 1.1 µM and inactive = higher.
Your response should consist of one outcome taken from 1.0 (active), 0.0 (inactive)

For orientation, consider the following solved cases.
O=C1C(C(O)(C(F)(F)Cl)C(F)(F)Cl)CCC1C(O)(C(F)(F)Cl)C(F)(F)Cl (centres undefined): 0.0
COc1cc(/C=C/c2ccc(OC)c(OC)c2)cc(OC)c1 [(E)-3,4,3',5'-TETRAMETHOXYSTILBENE]: 0.0
Cc1ccc2ccccc2c1CC1S(=O)(=O)OCCOS1(=O)=O: 0.0

We next turn to a different compound, shown below.
Fill in: this test's call for O=[N+]([O-])c1cc(-[n+]2cc([O-])on2)ccc1Cl is ___ 0.0

* * *

Item-by-item account of GI50
Test system: SF-539
Assay: NCI tumour cell line growth inhibition, 48 h
Active and inactive are the calls of the source. Cut-off read from the data, not from the text of the source: active = GI50 up to about 1.1 µM and inactive = higher.

COc1ccc(N/N=C(\CCN(C)C)c2ccccc2)cc1: 1.68 µM (inactive)

Switching to the query record.
For Fc1ccccc1-c1cc(S)c2cc3c(cc2n1)OCO3 the molecule record lists GI50 as 7.18 µM (inactive)

* * *

Tested on: SF-268
Assay: NCI tumour cell line growth inhibition, 48 h
Active and inactive are the calls of the source. Rule as the data show it: active = GI50 up to about 1.1 µM and inactive = higher.
parameter: GI50

COc1ccc(/C=C2/CCCC/C2=N/O)cc1: 57.9 µM (inactive)
COc1cc(CC(C(=O)O)C(=O)O)c(OC)cc1CC(C(=O)O)C(=O)O: > 100 µM (inactive)
c1cnc2c(c1)-n1cccc1C1(CCSC1)NN2 (centres undefined): > 100 µM (inactive)
NNc1nncc2[nH]cnc12: > 100 µM (inactive)
COc1ccc(CNc2nc3ccccc3nc2C(=O)O)cc1: > 100 µM (inactive)
CC1=C(C(=O)Nc2ccc(C)cc2)C(c2cccc([N+](=O)[O-])c2)C(C(=O)Nc2ccc(C)cc2)=C(C)N1: 16.1 µM (inactive)

Switching to the query record.
For COC(C[C@H]1CCCC[C@]1(O)/C(=C\CO[Si](C(C)C)(C(C)C)C(C)C)Sc1ccccc1)OC the compound record lists GI50 as 28.3 µM (inactive)

* * *

Tested on: NCI-H460
Experiment: NCI tumour cell line growth inhibition, 48 h
Activity calls are given as the source filed them. Cut-off read from the data, not from the text of the source: active = GI50 up to about 1.1 µM and inactive = higher.
parameter: GI50

CCCCCCCCSC(=O)NCCCC: 34 µM (inactive)
CCOC(=O)c1cc(Br)c(-c2onc(C)c2Br)[nH]1: 65.6 µM (inactive)

# Cc1cc2nc3[nH]c4c(Cl)cc(Cl)cc4c3nc2cc1C with NCI-H460: GI50 is > 100 µM (inactive)

# NNC(=O)N/N=C1\CN(c2ccc(Cl)cc2Cl)C(=O)C(=O)C1c1nc2ccccc2o1 (centres undefined) with NCI-H460: GI50 is > 100 µM (inactive)

* * *

Tested on: HT-29
Test: NCI tumour cell line growth inhibition, 48 h
Active and inactive are the calls of the source. No stated cut-off is given here; in the data, active = GI50 up to about 1.1 µM and inactive = higher.
parameter: GI50

Examples from the recorded data:
COc1cnc2cc(C(=O)O)c3ccccc3c2c1: > 100 µM (inactive)
O=C(O)CSC(NC(=O)C(C(F)(F)F)C(F)(F)F)(C(F)(F)F)C(F)(F)F: > 100 µM (inactive)
CC1(C)O[C@@H](CP(c2ccccc2)c2ccccc2)[C@H](CP(c2ccccc2)c2ccccc2)O1: 0.675 µM (active)
Cc1cc(C(=O)CBr)c(CN2C(=O)c3ccccc3C2=O)c(=O)n1C: 14.2 µM (inactive)
C=C[C@]1(C)CCC2=C(CCC3C2(C)CCC[C@@]3(C)COC(C)=O)C1 (stereo partly drawn): 18.7 µM (inactive)
O=c1c2ccccc2sc2cccc(NCCCN3CCN(CCCNc4cccc5sc6ccccc6c(=O)c45)CC3)c12: > 100 µM (inactive)
COc1ccc(NC(=O)C(=O)Cc2nc3ccc(C(=O)c4ccccc4)cc3nc2O)c([N+](=O)[O-])c1: 14.9 µM (inactive)
O=S(O)CCCCCSSc1ccccc1: 84.9 µM (inactive)

For C=C1C(O)C2(O)OCC34C(CC5C(C)=CC(=O)C(O)C5(C)C23)OC(=O)C(OC(=O)C/C=C/CCCCCCCC)C14 (stereo not drawn) the compound record lists GI50 as 0.0226 µM (active)

For COc1cc(CC(C(=O)O)C(=O)O)c(OC)cc1CC(C(=O)O)C(=O)O the compound record lists GI50 as > 100 µM (inactive)

For Cc1cn(CCCCOC(=O)NC(CCCNC(=N)N)C(=O)O)c(=O)[nH]c1=O (stereo not drawn) the compound record lists GI50 as > 100 µM (inactive)

For Cc1nn(C)cc1P(=S)(c1ccccc1)c1ccccc1 the compound record lists GI50 as 50.4 µM (inactive)

For CCc1cc(Cc2cc(CC)c(NC(=O)C(=O)Cc3ccccn3)c(CC)c2Cl)c(Cl)c(CC)c1NC(=O)C(=O)Cc1ccccn1 the compound record lists GI50 as 70 µM (inactive)

For CC1(C)COC(c2cccc(C(O)c3ccc(Cl)cc3)c2)=N1 (stereo not drawn) the compound record lists GI50 as 17.7 µM (inactive)

For Cc1[nH]c(-c2ccccc2)c(O)c1C(=O)OC1CC(C)CCC1C(C)C (stereo not drawn) the compound record lists GI50 as 14.4 µM (inactive)

For CCCCCCCCCc1cc(=O)c2ccc(O)cc2o1 the compound record lists GI50 as > 100 µM (inactive)

For COc1cc([C@@H]2c3cc4c(cc3[C@@H](NCc3ccc(C#N)cc3)C3COC(=O)[C@@H]32)OCO4)cc(OC)c1O (stereo partly drawn) the compound record lists GI50 as 1.19 µM (inactive)

For CC(C)(C)OC(=O)/C=C/C(=O)O/C=C/[N+](=O)[O-] the compound record lists GI50 as > 100 µM (inactive)
